experiment: pKa of Compound A; format: physicochemical; details: crystalline polymorphic Form IV
Endpoint Label: pKa

# pKa lookup, item CNC(=O)c1ccccc1Sc1ccc2c(/C=C/c3ccccn3)n[nH]c2c1 [Compound A]
~4.2
